Molecular target: Excitatory amino acid transporter 2 (Rattus norvegicus)
Experiment: Tested for the ability to attenuate the sodium-dependent uptake of [3H]D-aspartate (5 uM) into synaptosomes prepared from rat forebrain at 25 uM
Format: subcellular
Conditions: Brain
// F strictly below 80% in Control; T otherwise

Compound	Class label
O=C(O)[C@@H]1CN[C@@H](C(=O)O)C1 (stereo in doubt; form 2)	T
O=C(O)[C@@H]1CN[C@@H](C(=O)O)C1 (stereo in doubt; form 1)	F
O=C(O)[C@H]1NCC[C@H]1C(=O)O (stereo in doubt; form 1)	T
CC(C)[C@H]1CN[C@H](C(=O)O)[C@H]1CC(=O)O (single isomer, unassigned)	T
N[C@@H](CCC(=O)O)C(=O)O	F
O=C(O)[C@H]1NC[C@H]1C(=O)O (stereo in doubt; form 1)	T

---

Species: Rattus norvegicus
Experiment: Tested for the competitive inhibitory activity against D-aspartate transport in rat synaptosomes

Compound	Ki (nM)
O=C(O)[C@@H]1CN[C@@H](C(=O)O)C1 (stereo in doubt; form 1)	1300
